Hey, just so you know, these numbers are from patent US5053070A.

Tested on: bulrush
Assay: Treatment of soil under submerged condition, pre-emergence (Test 4)
Format: in vivo
Conditions: 30 g ai/a granule, 30 days later
reported-metric: Herbicidal effects Bulrush

Worked examples, 5 molecules total:
- molecule: "C=C(C)CON=Cc1ccccc1Oc1nc(OC)cc(OC)n1"
  result: "4 (6-10 (Severe damages))"
- molecule: "COc1cc(OC)nc(Oc2ccccc2C=NOCc2ccc(Cl)cc2Cl)n1"
  result: "4 (6-10 (Severe damages))"
- molecule: "COC(=O)c1ccccc1Oc1nc(OC)cc(OC)n1 [A, reference compound]"
  result: "5 (0-5 (Death))"
- molecule: "CC#CCON=Cc1ccccc1Oc1nc(OC)cc(OC)n1"
  result: "4 (6-10 (Severe damages))"
- molecule: "COc1cc(OC)nc(Oc2ccccc2C=NOCC=Cc2c(F)cccc2F)n1"
  result: "4 (6-10 (Severe damages))"

What measured Herbicidal effects Bulrush goes with `COc1cc(OC)nc(Oc2ccccc2C=NOCC=Cc2ccc(C)cc2)n1` ?
4 (6-10 (Severe damages))
